Here the recorded melting point is given for each entry.

Sample answers from the record:
[[record]]
molecule = "CCCCCCCc1ccc2cc(-c3ncc(CC)cn3)ccc2c1"
observed = "62.3 to 63.1 °C"

[[record]]
molecule = "O=c1[nH]c2cc(Cl)ccc2c(O)c1-c1cccc(Cc2ccccc2)c1"
observed = "304 to 306 °C"

[[record]]
molecule = "C=CCN1C2CCC1C1CCC2N1C(c1ccc(C(=O)N2CCCC2)cc1)c1cccc(OC)c1 (stereo not given)"
observed = "46 to 48 °C"


Entry CN1C(=O)C(=O)C(c2ccc(Cl)cc2)Sc2ccccc21 (stereo not given) , melting point reported as 124 to 126 °C

Entry CCS(=O)(=O)CCC(=O)NNC(=O)N1Cc2cccc(Cl)c2Oc2ccccc21 , melting point reported as 195 to 197 °C
